assayed target: DRB1*1101 (Homo sapiens, UniProt P01903+P01911, A100R/A169T/A87E/I96F/K41T/L162R/M171V/P40S/Q125H/Q178H/Q39Y/Q99D/R42S/S66Y/T262R/V115G/W38E)
Sequence (P01903 26-254 limits assumed, other chains not shown): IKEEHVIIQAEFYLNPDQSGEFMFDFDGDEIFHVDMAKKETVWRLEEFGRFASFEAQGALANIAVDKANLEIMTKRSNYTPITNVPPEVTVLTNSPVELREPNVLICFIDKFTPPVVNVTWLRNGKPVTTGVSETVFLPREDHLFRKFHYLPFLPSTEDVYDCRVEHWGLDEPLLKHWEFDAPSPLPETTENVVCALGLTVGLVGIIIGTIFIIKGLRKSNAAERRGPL
test method notes: biochemical
pIC50: −log10 of the molar value. No end group written: not given here.
Would you kindly list pIC50 for each of these sequences?

Sample records with pIC50:
                       item_sequence  test_result
0  DSQIAFQYAQLADVD [Peptide 89.0130]       < 4.70
1  IKFFQGSVISFVNSQ [Peptide 89.0136]       < 4.70
2  RNLVDGNPISLDRKH [Peptide 89.0137]       < 4.70
3  WKAVRHENVLYYKAR [Peptide 90.0230]         5.67
4  LVQIKCPPLLITTNI [Peptide 89.0138]       < 4.70
5  PPLLITTNINPMLDA [Peptide 89.0139]         5.13
6  LIKFFQGSVISFVNS [Peptide 89.0135]       < 4.70
7  RKTIAKALSSILNVP [Peptide 89.0123]       < 4.70

Now look at this one.
Query: Name the recorded pIC50 for TTPIIHKLGDRNSLK [Peptide 1601.17] .
Result: 5.32

###

assayed target: HLA-A11 (A*1101) (Homo sapiens, UniProt P04439, A114D/D185E/E176A/F33Y/L180Q/S129P/T187R)
test method notes: biochemical
Type: binding
No end group written: not given here.
Would you kindly list IC50 for each of these sequences?

Sample records with IC50:
>>> print(df.to_string())
                  item_sequence                            assayed_target  test_result
0   SSCMGGMNR [Peptide 1556.59]  HLA-A11 (A*1101) (Homo sapiens, UniProt P04439, A114D/D185E/E176A/F33Y/L180Q/S129P/T187R)        16 nM
1  WFFVETIVEK [Peptide 88.0171]  HLA-A11 (A*1101) (Homo sapiens, UniProt P04439, A114D/D185E/E176A/F33Y/L180Q/S129P/T187R)      1480 nM
2  VSYWGVYYIK [Peptide 1589.25]  HLA-A11 (A*1101) (Homo sapiens, UniProt P04439, A114D/D185E/E176A/F33Y/L180Q/S129P/T187R)         3 nM

Please state IC50 for every sequence in the list that follows.
1. LQLALEALNK [Peptide 88.0227]
2. AVMCRHYKR [Peptide 1587.53]
3. ISKQPLPQTR [Peptide 9017.0207]
4. ATLQDIVLH [Peptide 78.0278]
5. KLVEDRWNK [Peptide 9017.0107]
6. GVSIEWRQR [Peptide 9017.0087]
7. VTVYYGIPVWR [Peptide 1525.05]

Result:
1. 21 nM
2. 31 nM
3. > 20000 nM
4. 152 nM
5. 102 nM
6. 1220 nM
7. 17 nM

###

Would you kindly list IC50 for each of these sequences?
assayed target: DRB1*1101 (Homo sapiens, UniProt P01903+P01911, A100R/A169T/A87E/I96F/K41T/L162R/M171V/P40S/Q125H/Q178H/Q39Y/Q99D/R42S/S66Y/T262R/V115G/W38E)
test method notes: biochemical
measurement parameters: Binding affinity DRB1 *1101
No end group written: not given here.

Please state IC50 for every sequence in the list that follows.
1. IAYYYAQLADSNSNA [Peptide 89.0072]
2. HQVVPPMAVSKAKAC [Peptide 90.0012]
3. EVHVGGQVIVCPASV [Peptide 90.0015]

Result:
> 20 µM
7.01 µM
> 20 µM
